- assayedSystem: HDHD3 Haloacid dehalogenase-like hydrolase domain-containing protein 3 (Homo sapiens, UniProt Q9BSH5)
- Construct: isoTOP-ABPP experiments performed in cell lysates (in vitro); endogenous in cells; host or cells: soluble proteome of human cancer cell lines (MDA-MB-231; Ramos and Jurkat also prepared)
- Sequence (Q9BSH5 whole entry, the tested form may be a part): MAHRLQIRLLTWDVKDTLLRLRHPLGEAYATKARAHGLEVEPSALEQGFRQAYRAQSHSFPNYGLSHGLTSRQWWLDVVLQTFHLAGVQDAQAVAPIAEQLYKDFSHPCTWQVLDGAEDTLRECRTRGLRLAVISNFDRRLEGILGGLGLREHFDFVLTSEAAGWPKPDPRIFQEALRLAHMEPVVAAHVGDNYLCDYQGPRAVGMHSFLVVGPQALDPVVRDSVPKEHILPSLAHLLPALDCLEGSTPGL
- testSummary: competitive isoTOP-ABPP
- Assay type: binding
- Set-up: key: R = MS1 peak area ratio, DMSO (heavy) / compound-treated (light)
- condition: 50 uM, 231 sol, in vitro
I'd be grateful if you could share measured isoTOP-ABPP reactivity ratio at lysine Q9BSH5_K15 for these entries.

Completed entries (count: 2):
COc1cc(CCC(=O)Oc2ccc([N+](=O)[O-])cc2[N+](=O)[O-])cc(OC)c1OC [fragment 33]
1.5
O=C(Oc1c(F)c(F)c(F)c(F)c1F)C1CCN(C(=O)OCc2ccccc2)CC1 [fragment 24]
2.3

Turning now to a further record.
Noted for O=C(CN1C(=O)c2ccccc2C1=O)Oc1c(F)c(F)c(F)c(F)c1F [fragment 27] : its isoTOP-ABPP reactivity ratio at lysine Q9BSH5_K15 reads 2.3

* * *

I'd be grateful if you could share measured isoTOP-ABPP ratio (R) at liganded lysine Q9NTK5_K248 for these entries.
- assayedSystem: OLA1 Obg-like ATPase 1 (Homo sapiens)
- Construct: endogenous in cells; host or cells: MDA-MB-231 (soluble fraction of lysate)
- testSummary: competitive isoTOP-ABPP
- Type: binding
- condition: 50 uM, in vitro, sol, 231

Completed entries (count: 3):
O=C(Oc1ccc([N+](=O)[O-])cc1[N+](=O)[O-])c1ccc(-c2ccccc2)cc1 [fragment 37]
0.9
O=C(Oc1ccc([N+](=O)[O-])cc1[N+](=O)[O-])c1ccc(Oc2ccccc2)cc1 [fragment 39, 2,4-Dinitrophenyl 4-phenoxybenzoate]
0.9
O=C(CCc1coc2cc(F)ccc2c1=O)Oc1ccc([N+](=O)[O-])cc1[N+](=O)[O-] [fragment 36]
0.8

Turning now to a further record.
The recorded isoTOP-ABPP ratio (R) at liganded lysine Q9NTK5_K248 with OLA1 Obg-like ATPase 1 (Homo sapiens) for CC(=O)Oc1ccc([N+](=O)[O-])cc1[N+](=O)[O-] [fragment 43, 2,4-Dinitrophenyl acetate] was 1.0

* * *

- assayedSystem: AP1G1 AP-1 complex subunit gamma-1 (Homo sapiens)
- Construct: isoTOP-ABPP experiments performed in cell lysates (in vitro); endogenous in cells; host or cells: MDA-MB-231 soluble lysate
- Sequence (O43747 whole entry, one chain of several): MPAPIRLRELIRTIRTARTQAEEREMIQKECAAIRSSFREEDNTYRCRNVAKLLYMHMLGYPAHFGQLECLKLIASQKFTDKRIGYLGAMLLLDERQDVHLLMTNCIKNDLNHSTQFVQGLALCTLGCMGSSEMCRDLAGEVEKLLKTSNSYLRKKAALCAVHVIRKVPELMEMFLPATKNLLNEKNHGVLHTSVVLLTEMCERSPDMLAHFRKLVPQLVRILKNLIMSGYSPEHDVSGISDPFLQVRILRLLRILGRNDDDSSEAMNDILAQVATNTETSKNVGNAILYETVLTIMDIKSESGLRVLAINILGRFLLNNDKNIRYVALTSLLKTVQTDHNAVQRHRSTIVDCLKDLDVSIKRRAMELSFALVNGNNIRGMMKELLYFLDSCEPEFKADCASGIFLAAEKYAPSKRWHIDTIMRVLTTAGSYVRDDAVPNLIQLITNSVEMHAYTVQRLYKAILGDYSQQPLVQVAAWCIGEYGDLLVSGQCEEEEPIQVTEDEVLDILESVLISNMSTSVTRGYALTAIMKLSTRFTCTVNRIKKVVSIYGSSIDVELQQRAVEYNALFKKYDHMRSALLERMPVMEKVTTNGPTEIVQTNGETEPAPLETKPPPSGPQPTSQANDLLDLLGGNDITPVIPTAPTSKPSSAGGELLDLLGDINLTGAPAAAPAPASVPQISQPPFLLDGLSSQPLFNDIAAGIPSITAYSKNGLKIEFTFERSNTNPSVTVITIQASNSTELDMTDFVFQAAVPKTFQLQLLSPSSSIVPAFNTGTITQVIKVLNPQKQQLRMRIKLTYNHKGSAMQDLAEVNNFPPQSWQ
- testSummary: competitive isoTOP-ABPP
- Type: binding
- condition: 50 uM, 231 sol, in vitro
Please respond with Yes when measured isoTOP-ABPP reactivity ratio at lysine O43747_K214 is strictly beneath 1, and with No in all other cases.

Illustrative cases are given below, each with its answer.
O=C(Oc1ccc([N+](=O)[O-])cc1[N+](=O)[O-])C(c1ccccc1)c1ccccc1 [fragment 30, 2,4-Dinitrophenyl 2,2-diphenylacetate]
No
O=C(Oc1ccc([N+](=O)[O-])cc1[N+](=O)[O-])c1cc(C(F)(F)F)cc(C(F)(F)F)c1 [fragment 31]
Yes
Cn1cc(CC(=O)Oc2ccc([N+](=O)[O-])cc2[N+](=O)[O-])c2ccccc21 [fragment 32]
No
O=C(CCc1coc2cc(F)ccc2c1=O)Oc1c(F)c(F)c(F)c(F)c1F [fragment 26]
No
COc1cc(CCC(=O)Oc2ccc([N+](=O)[O-])cc2[N+](=O)[O-])cc(OC)c1OC [fragment 33]
No

Shifting focus to the compound that follows.
-- ask For O=C(CN1C(=O)c2ccccc2C1=O)Oc1c(F)c(F)c(F)c(F)c1F [fragment 27] , is the recorded isoTOP-ABPP reactivity ratio at lysine O43747_K214 below the cut-off of 1?
-- reply Yes
